- Tested on: HepG2-ACTB-RAB5A
- Measurement description: lowest phenotypically active concentration; higher = less potent
- Measurement parameters: treatment time: 24 h
lowest phenotypically active concentration values by entry
Note: unit µM is implicit; provide only the numeric part.

CC(C)OC(=O)c1cc2c(OCC(O)CNC(C)(C)C)cccc2[nH]1 (centres undefined) | 9
CCCNCC(O)COc1ccccc1C(=O)CCc1ccccc1 (centres undefined) | 9

// below: lowest phenotypically active concentration requested for another compound
Request the reported lowest phenotypically active concentration associated with "Cc1ccc(NC2=CC(=O)c3sc(C)nc3C2=O)cc1" 3

====

phenotypically active values by entry
- Test system: HepG2-GM130-SQSTM1
- Measurement description: phenotypically active (imaging signature differs from DMSO and reproducible) at any of 0.3-9 uM (binary (1 = active, 0 = inactive)); higher = active
- Measurement parameters: treatment time: 24 h
Structures can show the parent of a compound that is named as a salt.
Answer as a number with no unit attached.

O=c1cc(N2CCOCC2)oc2c(-c3ccccc3)cccc12 | 1
COc1ccc(S(=O)(=O)N(C(C)=O)c2ccccc2/C=C/c2cc[n+]([O-])cc2)cc1 | 1
COc1cc(C)c(/C=C/C(C)=C/C=C/C(C)=C/C(=O)O)c(C)c1C [acitretin] | 0

Request the reported phenotypically active associated with COc1ccc(CC2c3cc(OC)c(OC)cc3CC[N+]2(C)CCC(=O)OCCCCCOC(=O)CC[N+]2(C)CCc3cc(OC)c(OC)cc3C2Cc2ccc(OC)c(OC)c2)cc1OC (configuration not stated) [Atracurium besilate] 1

Please do the same for COC(=O)C1=CO[C@@H](C)[C@H]2CN3CCc4c([nH]c5ccccc45)[C@@H]3C[C@H]12 [Ajmalicine hydrochloride] as well. 0

Please do the same for CN(N=O)C(=O)N[C@@H](C=O)[C@@H](O)[C@H](O)[C@H](O)CO.CN(N=O)C(=O)N[C@H]1C(O)O[C@H](CO)[C@@H](O)[C@@H]1O [streptozotocin] as well. 0

Please do the same for CC(=C/[C@@H](C)C(=O)c1ccc(N(C)C)cc1)/C=C/C(=O)NO [Trichostatin A] as well. 1

====

- Test system: A549-CANX-COX4
- Measurement description: phenotypically active (imaging signature differs from DMSO and reproducible) at any of 0.3-9 uM (binary (1 = active, 0 = inactive)); higher = active
- Measurement parameters: treatment time: 24 h
Counter-ions that a name gives are not always drawn.
Log the outcome using a class from active, inactive

CC(C)NCC(O)c1ccc(O)c(O)c1 (stereo unspecified) [Isoproterenol hydrochloride] | inactive
O=C(O)c1ccc(Nc2ncc3c(n2)-c2ccc(Cl)cc2C(c2c(F)cccc2F)=NC3)cc1 | active
CCc1cccc2c3c([nH]c12)C(CC)(CC(=O)O)OCC3 (stereo unspecified) | inactive

Shifting focus to the compound that follows.
Please indicate how the test categorized COC(=O)[C@@H]1[C@H]2C[C@H]3c4[nH]c5ccccc5c4CCN3C[C@@H]2CC[C@@H]1O [Yohimbine hydrochloride] . inactive

====

- Tested on: WPMY1-TUBA1B-RELA
- Measurement description: lowest phenotypically active concentration; higher = less potent
- Measurement parameters: treatment time: 24 h
Observable: lowest phenotypically active concentration (µM)
Note: unit µM is implicit; provide only the numeric part.

In the examples that follow, each entry is paired with its recorded lowest phenotypically active concentration.
C[C@@H](N)[C@H]1CC[C@H](C(=O)Nc2ccncc2)CC1 | 1
COc1cc2c(cc1O)CC[C@@H]1[C@@H]2CC[C@]2(C)[C@@H](O)CC[C@@H]12 [2-methoxyestradiol] | 1
CC(C)n1nc(-c2cc3cc(O)ccc3[nH]2)c2c(N)ncnc21 | 3

Request the reported lowest phenotypically active concentration associated with Nc1ncn([C@@H]2O[C@H](CO)[C@@H](O)[C@H]2O)c(=O)n1 [5-Azacytidine] 3

====

- System: A549-TUBA1B-RELA
- Measurement description: lowest phenotypically active concentration; higher = less potent
- Measurement parameters: treatment time: 24 h
Where a name gives a salt, the structure may show the parent alone.
Observable: lowest phenotypically active concentration (µM)
Note: unit µM is implicit; provide only the numeric part.

In the examples that follow, each entry is paired with its recorded lowest phenotypically active concentration.
C[C@@H](N)[C@H]1CC[C@H](C(=O)Nc2ccncc2)CC1 | 9
Nc1nccc2c1ncn2[C@@H]1C=C(CO)[C@@H](O)[C@H]1O [3-Deazaneplanocin A hydrochloride] | 3
c1ccc(CN(CC2=NCCN2)c2ccccc2)cc1 | 9
COc1cc2c(cc1-c1c(C)noc1C)ncc1[nH]c(=O)n([C@H](C)c3ccccn3)c12 [I-BET 151 dihydrochloride] | 1

Request the reported lowest phenotypically active concentration associated with CN1CCC(CN2c3ccccc3Sc3ccccc32)C1 (stereo not given) 3

====

- System: WPMY1-TUBA1B-RELA
- Measurement description: lowest phenotypically active concentration; higher = less potent
- Measurement parameters: treatment time: 24 h
Where a name gives a salt, the structure may show the parent alone.
lowest phenotypically active concentration values by entry
Note: unit µM is implicit; provide only the numeric part.

In the examples that follow, each entry is paired with its recorded lowest phenotypically active concentration.
Nc1cc(C(F)(F)F)c(-c2cc(N3CCOCC3)nc(N3CCOCC3)n2)cn1 [buparlisib] | 3
C[C@@H]1COCCN1c1cc(C2(S(C)(=O)=O)CC2)nc(-c2cccc3[nH]ccc23)n1 | 3
CCCCC1C(=O)N(c2ccccc2)N(c2ccc(O)cc2)C1=O (stereo not drawn) [oxyphenbutazone] | 9
Cc1cc(Nc2cc(C)c(C#N)c(NC(C)CCCC(C)(C)O)n2)n[nH]1 (stereo not drawn) [TC-A 2317 hydrochloride] | 1

// below: lowest phenotypically active concentration requested for another molecule
Request the reported lowest phenotypically active concentration associated with O=C(NC(NC(=S)Nc1ccc(F)c([N+](=O)[O-])c1)C(Cl)(Cl)Cl)C(c1ccccc1)c1ccccc1 (stereo not drawn) 9

====

- Tested on: A549-GM130-SQSTM1
- Measurement description: phenotypically active (imaging signature differs from DMSO and reproducible) at any of 0.3-9 uM (binary (1 = active, 0 = inactive)); higher = active
- Measurement parameters: treatment time: 24 h
Log the outcome using a class from true = active, false = inactive

Reference set (10 entries):
O=[N+]([O-])c1c(Nc2cc(F)cc(Cl)c2)ccc2nonc12 | false
COc1ccc(S(=O)(=O)ON=C2C=C(C)C(=O)C(C)=C2)cc1 | true
Clc1ccc(C(c2ccc(Cl)cc2)[n+]2ccn(CC(OCc3ccc(Cl)cc3Cl)c3ccc(Cl)cc3Cl)c2)cc1 (centres undefined) [Calmidazolium chloride] | false
Nc1ncnc(Nc2ccc(OCc3ccccc3)c(Cl)c2)c1/C=N/OCCN1CCOCC1 | true
c1cc(-c2cc(C3CCNCC3)[nH]n2)ccn1 | true
Cc1ccc(-c2c(-c3nn(C)c4ncnc(N5CC[C@H](N6CCCCC6)C5)c34)cnn2C)cc1 | false
CNC(=O)c1cc(Oc2ccc(NC(=O)Nc3ccc(Cl)c(C(F)(F)F)c3)cc2)ccn1 | true
CC(CN(C)C)CN1c2ccccc2Sc2ccccc21.CC(CN(C)C)CN1c2ccccc2Sc2ccccc21 (centres undefined) | true
O=c1cc(N2CCOCC2)oc2c(-c3cccc4c3sc3ccccc34)cccc12 | true
FC(F)OC(F)C(F)(F)F (centres undefined) | false

Please indicate how the test categorized CN(C)CCCC1(c2ccc(F)cc2)OCc2cc(C#N)ccc21 (centres undefined) . false

Please do the same for "O=C(NCc1ccccn1)Nc1nnc(-c2ccco2)o1" as well. false

Please do the same for CN(C(=O)CCCOc1ccc2[nH]c(=O)ccc2c1)C1CCCCC1 [Cilostamide] as well. false

====

lowest phenotypically active concentration values by entry
- System: WPMY1-GM130-SQSTM1
- Measurement description: lowest phenotypically active concentration; higher = less potent
- Measurement parameters: treatment time: 24 h
Where a name gives a salt, the structure may show the parent alone.
Note: unit µM is implicit; provide only the numeric part.

CCCCCCCCCCCCC/C=C/[C@H](O)[C@H](N)CO [D-erythro-Sphingosine (synthetic)] | 9
CC(CCc1ccc(O)cc1)NCCc1ccc(O)c(O)c1 (stereo unspecified) [Dobutamine hydrochloride] | 3
COc1cc(/C=C/c2ccc(OC)cc2OC)cc(OC)c1 | 1
O=C1NCCN1CCN1CCC(c2cn(-c3ccc(F)cc3)c3ccc(Cl)cc23)CC1 | 9
COc1ccc(C[C@@H]2c3cc(OC)c(OC)cc3CC[N@+]2(C)CCC(=O)OCCCCCOC(=O)CC[N@@+]2(C)CCc3cc(OC)c(OC)cc3[C@H]2Cc2ccc(OC)c(OC)c2)cc1OC [Cisatracurium besylate] | 9

Request the reported lowest phenotypically active concentration associated with "CC(C)N(CCCNC(=O)Nc1ccc(C(C)(C)C)cc1)C[C@H]1O[C@@H](n2cc(Br)c3c(N)ncnc32)[C@H](O)[C@@H]1O" 9

Please do the same for "CC[C@@H](N)CNc1ccnc(-c2cc(-c3cnn(C)c3)ccc2O)n1" as well. 1

Please do the same for "Clc1ccccc1C(c1ccccc1)(c1ccccc1)n1ccnc1" as well. 9

The values you see were collected from the supplement of paper PMC7411054.
